// data source = patent US8471005B2

# Target System: ALK (Homo sapiens)
# Construct: host or cells: baculovirus expression system
# Sequence (Q9UM73 19-1620): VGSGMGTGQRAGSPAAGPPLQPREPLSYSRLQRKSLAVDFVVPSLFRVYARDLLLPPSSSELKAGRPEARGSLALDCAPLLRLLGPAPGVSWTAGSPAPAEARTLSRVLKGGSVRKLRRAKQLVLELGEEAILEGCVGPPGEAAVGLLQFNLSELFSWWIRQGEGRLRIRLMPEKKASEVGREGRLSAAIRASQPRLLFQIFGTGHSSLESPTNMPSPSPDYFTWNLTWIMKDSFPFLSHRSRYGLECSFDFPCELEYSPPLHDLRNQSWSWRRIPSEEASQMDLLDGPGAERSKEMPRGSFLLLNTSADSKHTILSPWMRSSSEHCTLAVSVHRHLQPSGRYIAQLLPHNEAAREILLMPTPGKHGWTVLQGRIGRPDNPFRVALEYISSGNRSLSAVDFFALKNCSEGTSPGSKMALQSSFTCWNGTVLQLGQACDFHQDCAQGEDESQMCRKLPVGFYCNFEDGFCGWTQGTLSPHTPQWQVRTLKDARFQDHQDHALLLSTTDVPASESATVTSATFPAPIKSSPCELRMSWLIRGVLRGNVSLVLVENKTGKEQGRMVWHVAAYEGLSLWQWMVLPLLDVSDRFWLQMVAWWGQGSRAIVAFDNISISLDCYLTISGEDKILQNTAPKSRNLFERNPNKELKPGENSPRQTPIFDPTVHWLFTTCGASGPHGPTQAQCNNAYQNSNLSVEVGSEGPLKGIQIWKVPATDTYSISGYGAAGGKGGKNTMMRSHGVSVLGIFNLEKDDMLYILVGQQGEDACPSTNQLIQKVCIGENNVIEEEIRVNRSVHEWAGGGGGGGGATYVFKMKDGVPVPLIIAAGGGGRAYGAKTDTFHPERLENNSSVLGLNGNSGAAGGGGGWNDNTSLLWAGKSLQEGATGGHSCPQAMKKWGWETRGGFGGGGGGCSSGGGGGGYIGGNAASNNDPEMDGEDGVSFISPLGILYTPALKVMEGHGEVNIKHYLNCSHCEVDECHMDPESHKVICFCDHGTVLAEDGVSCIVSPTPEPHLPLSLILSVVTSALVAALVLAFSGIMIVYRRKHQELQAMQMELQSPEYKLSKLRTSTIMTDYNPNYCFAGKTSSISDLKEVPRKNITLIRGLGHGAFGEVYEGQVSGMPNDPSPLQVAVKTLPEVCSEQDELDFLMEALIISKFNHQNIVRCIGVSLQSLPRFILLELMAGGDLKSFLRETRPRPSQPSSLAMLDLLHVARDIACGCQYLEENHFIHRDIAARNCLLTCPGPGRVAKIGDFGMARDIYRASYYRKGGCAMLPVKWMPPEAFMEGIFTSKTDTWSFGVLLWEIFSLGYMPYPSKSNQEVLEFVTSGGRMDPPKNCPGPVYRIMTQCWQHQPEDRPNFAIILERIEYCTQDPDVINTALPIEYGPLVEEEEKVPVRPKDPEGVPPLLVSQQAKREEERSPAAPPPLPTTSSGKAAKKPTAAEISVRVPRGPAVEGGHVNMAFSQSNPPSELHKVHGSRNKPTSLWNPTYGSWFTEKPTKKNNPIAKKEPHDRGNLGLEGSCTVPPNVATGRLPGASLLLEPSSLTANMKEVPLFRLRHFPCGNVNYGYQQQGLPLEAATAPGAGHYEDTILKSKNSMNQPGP
# Assay Notes: ALK Kinase Assay (ELISA/TRF, PLC-γ substrate)
# Type: biochemical
# Protocol Conditions: ALK kinase inhibition, 1 μM ATP; read-out: ALK Potency
Property Name: IC50

Query (compound): COc1cc(CCN2CCOCC2)ccc1Nc1ncc2ccc(-c3ccccc3N(C)S(C)(=O)=O)n2n1 ; field requested: IC50
< 100 nM

Using the record for CN(C)S(=O)(=O)c1cccc(Nc2ncc3ccc(-c4cccc(S(=O)(=O)NC(C)(C)C)c4)n3n2)c1 , report its IC50.
1000 to 10000 nM

Field request: IC50 | item: COc1ccc(-c2ccc3cnc(Nc4ccc(C5CCN(C)CC5)c(OC)c4)nn23)cn1
< 100 nM

What does the data say about its IC50? Entry: COc1cc(C2CCN(C[C@H](O)CO)CC2)ccc1Nc1ncc2ccc(-c3ccccc3N(C)S(C)(=O)=O)n2n1
< 100 nM

Request the reported IC50 associated with CN1CCC(c2ccc(Nc3ncc4ccc(-c5cccc(N(C)C)c5)n4n3)cc2)CC1
< 100 nM

Any idea what its IC50 is? The compound is COc1cc(C2CCNCC2O)ccc1Nc1ncc2ccc(-c3cccc4c3OCC4)n2n1 (centres unmarked)
< 100 nM

Report IC50 for CCN1CCN(C(=O)c2ccc(Nc3ncc4c(-c5ccc(F)cc5)ccn4n3)cc2)CC1 please.
> 10000 nM

Which IC50 reading was recorded for the compound COc1cc(Nc2ncc3ccc(-c4ccccc4N(C)S(C)(=O)=O)n3n2)ccc1C1CCN(C)CC1 ?
< 100 nM
